target.under.test: human dopamine D3 receptor (Homo sapiens, UniProt P35462)
Construct: host or cells: CHO
Sequence (P35462 whole entry): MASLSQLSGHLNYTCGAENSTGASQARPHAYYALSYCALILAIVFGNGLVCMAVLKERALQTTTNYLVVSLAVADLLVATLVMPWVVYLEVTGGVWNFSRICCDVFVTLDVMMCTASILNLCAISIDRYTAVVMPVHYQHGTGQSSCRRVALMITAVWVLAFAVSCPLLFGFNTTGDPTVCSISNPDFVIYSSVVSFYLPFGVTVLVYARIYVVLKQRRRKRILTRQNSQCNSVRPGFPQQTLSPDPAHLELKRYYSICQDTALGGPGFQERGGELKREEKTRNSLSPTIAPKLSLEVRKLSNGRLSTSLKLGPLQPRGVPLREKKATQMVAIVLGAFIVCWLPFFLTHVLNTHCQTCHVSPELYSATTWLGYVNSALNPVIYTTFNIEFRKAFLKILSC
assay.remarks: Human D3 Assay: binding of [3H]-Spiperone, CHO cell membranes
test.context: inhibition of ligand binding; mass concentration
reported.property: Approximate EC50 (µg/mL)

Study these solved cases before continuing.
{"columns": ["compound", "Approximate EC50 [µg/mL]"],
 "data": [
  ["C=C1CCC2C(C3C1CCC3(C)O)C2(C)C (stereo not drawn) [VM-022-034-F1, 10(14)-Aromadendren-4-ol]", 24.2],
  ["CC1=C2[C@H](/C=C(\\C)C=O)CC[C@@H](C)[C@H]2CC1 [VM-022-033-F1, Valerenal]", 10.2]
]}

[P] C=C1CCC(C(C)C)=CC2C1CCC2(C)O (stereo not drawn) [VM-022-034-F2, 6,10(14)-Guaiadien-4-ol]
[Q] CC1=C2C(/C=C(\C)CO)CCC(C)C2CC1 (stereo not drawn) [VM-022-034-F4, Valerenol]
Task item: Identify the entry with the smaller Approximate EC50: P or Q . Your answer should be the label of the entry you select.
Reply: Q
(Q: 10.5 µg/mL, P: 24.1 µg/mL)
